Below, each of the compounds is paired with its reported NanoBRET Fold Response value.
Target: PTGFR (Homo sapiens)
Construct: purchased Promega (in-house HiBiT-GPCR construct library, NanoBRET)
Sequence (P43088 whole entry): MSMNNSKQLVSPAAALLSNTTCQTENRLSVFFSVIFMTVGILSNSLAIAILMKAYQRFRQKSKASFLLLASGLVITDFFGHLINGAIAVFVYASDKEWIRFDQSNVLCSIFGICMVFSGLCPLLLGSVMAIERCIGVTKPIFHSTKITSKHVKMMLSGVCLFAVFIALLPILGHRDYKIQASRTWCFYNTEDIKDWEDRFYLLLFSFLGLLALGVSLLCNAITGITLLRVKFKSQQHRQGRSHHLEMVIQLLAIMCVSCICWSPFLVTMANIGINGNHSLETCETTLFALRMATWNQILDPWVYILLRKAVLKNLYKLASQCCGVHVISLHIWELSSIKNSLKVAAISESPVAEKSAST
Assay: NanoBRET screen HiBiT-PTGFR in HEK293
Assay type: binding
Conditions: PTGFR; tracer 0.1μM
REPORTED ENDPOINT: NanoBRET Fold Response

INSERT INTO measurements (compound, value_observed) VALUES
  ('Cc1cc2c(s1)Nc1ccccc1N=C2N1CCN(CCCNC(=O)CCOCCOCCOCCOCCNC(=O)CCc2ccc3n2[B-](F)(F)[N+]2=C(c4ccc[nH]4)C=CC2=C3)CC1', 1.03),
  ('COc1ccccc1N1CCN(CCCCN2C(=O)c3ccc(CNC(=O)CCOCCOCCOCCOCCNC(=O)CCc4ccc5n4[B-](F)(F)[N+]4=C(c6ccc[nH]6)C=CC4=C5)cc3C2=O)CC1', 1.00),
  ('Cc1nc2n(c(=O)c1CCN1CCC(c3noc4cc(F)ccc34)CC1)CCCC2OC(=O)NCCOCCOCCOCCOCCNC(=O)CCc1ccc2n1[B-](F)(F)[N+]1=C(c3ccc[nH]3)C=CC1=C2 (centres unmarked)', 1.00),
  ('O=C(CCc1ccc2n1[B-](F)(F)[N+]1=C(c3ccc[nH]3)C=CC1=C2)NCc1ccc(C(=O)NCCOCCC(=O)N[C@@H]2CC[C@@]3(O)[C@H]4Cc5ccc(O)c6c5[C@@]3(CCN4CC3CC3)[C@H]2O6)cc1 [Naltrexone-3-NB590]', 1.10),
  ('O=C(CCOCCOCCOCCOCCNC(=O)CCc1ccc2n1[B-](F)(F)[N+]1=C(c3ccc[nH]3)C=CC1=C2)NCCCN1CCN(C2=Nc3ccccc3Oc3ccc(Cl)cc32)CC1', 1.03);
